Quick list: Residual Rate (% by weight) after 7 Days per entry.
- PROTOCOL SUMMARY: Residual rate of the active substance in monomer solution (HPLC)
- Type: physicochemical
- CONDITION INFO: in Butyl Methacrylate; 25° C.
ATTRIBUTE MEASURED: Residual Rate (% by weight) after 7 Days

MOLECULE | ATTRIBUTE MEASURED | READING
CC(C)(C)NCC(O)c1ccccc1Cl (stereo not shown) | Residual Rate (% by weight) after 7 Days | 100
O=[N+]([O-])O[C@H]1CO[C@H]2[C@@H]1OC[C@H]2O[N+](=O)[O-] [ISDN, isosorbide dinitrate] | Residual Rate (% by weight) after 7 Days | 100
COc1ccc(OC)c(C(O)CN)c1 (stereo not shown) | Residual Rate (% by weight) after 7 Days | 98
COc1ccc2c(c1)c(CC(=O)O)c(C)n2C(=O)c1ccc(Cl)cc1 | Residual Rate (% by weight) after 7 Days | 99
